Experiment: Solubility / precipitation in aquacultural water
Assay type: physicochemical
Settings: test range 0.4~100 mg/L; aquacultural water; LC50 NONE
Readout Name: lowest precipitation concentration (bracketed value in LC50 72 h column)

{"columns": ["Compound", "Recorded Value"],
 "data": [
  ["O=C1Nc2c(c(=O)oc3ccccc23)C(c2ccc(O)cc2)N1 (centres unmarked) [A4]", "NONE (50) mg/L"],
  ["N#CC1=C(N)Oc2c(c(=O)oc3ccccc23)C1c1ccc(F)cc1 (centres unmarked) [C5]", "NONE (16) mg/L"],
  ["O=c1oc2ccccc2c2c1C(c1ccc(O)cc1)NC(=S)N2 (centres unmarked) [B4]", "NONE (50) mg/L"],
  ["Cc1ccc(C2C(C#N)=C(N)Oc3c2c(=O)oc2ccccc32)cc1 (centres unmarked) [C2]", "NONE (16) mg/L"]
]}

QUERY: Give its lowest precipitation concentration (bracketed value in LC50 72 h column) value. Item: N#CC1=C(N)Oc2c(c(=O)oc3ccccc23)C1c1ccc([N+](=O)[O-])cc1 (centres unmarked) [C8]
RESULT: NONE (16) mg/L
